From: patent EP4671273A1

- target or system: recombinant human IL-21 (rhIL-21) (human, UniProt Q9HBE4 30-162, limits assumed)
- Sequence (Q9HBE4 30-162 limits assumed): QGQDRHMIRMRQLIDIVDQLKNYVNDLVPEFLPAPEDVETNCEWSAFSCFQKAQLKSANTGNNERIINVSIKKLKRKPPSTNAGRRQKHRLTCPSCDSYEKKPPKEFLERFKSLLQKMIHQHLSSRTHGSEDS
- protocol: cell-based or functional assay
Give measured % pSTAT3+ Jurkat cells, 0.1 nM rhIL-21 + 0.6355 nM antibody for each item. Keep answers brief.
Numbers only, in %.

>  <binder>
ZAP122 (antibody, human IgG1, V domains shown) VH: QVQLQESGPGLVKPSETLSLTCTVSGGSISSDFWGWIRQPPGKGLEWIGYISSRGSTNYNPSLKRRVTISVDTSRNQFSLKLSSVTAADTAVYYCARSAGVTDFDFWGQGTLVTVSS VL: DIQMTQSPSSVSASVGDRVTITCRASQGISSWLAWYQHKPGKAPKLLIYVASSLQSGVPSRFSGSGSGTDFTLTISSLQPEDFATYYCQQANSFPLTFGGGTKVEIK

>  <measured number>
33

$$$$

Give measured % pSTAT3+ Jurkat cells, 0.1 nM rhIL-21 + 0.6355 nM antibody for every item shown.
1. FYP014 (antibody, human IgG1, V domains shown, human IgG1; also called EP3103813A1 clone 366.328.10.63) VH: EVQLVESGGGLVKPGGSLRLSCAASGFIFSSYSMNWVRQAPGKGLEWVSSITSGSYYIHYADSVKGRFTISRDNAKNSLYLQMNSLRAEDTAVYYCVRERGWGYYGMDVWGQGTTVTVSS VL: AIQLTQSPSSLSASVGDRVTITCRASQDIDSALAWYQQKPGKAPKILIHDASSLESGVPSRFSGSGSGTDFTLTISSLQPEDFATYYCQQFNSYPYTFGQGTKLEIK
2. LKK631 (antibody, human IgG1, V domains shown) VH: EVQLQQFGAEVVKPGASVKMSCKASGYTFTDYNMNWVKQSHEKSLEWIGDIHPKFHSTNYNQKFKGKATLTIDTSSSTAYMELRNLTSEDTAVYYCARVGNYVYFVMDYWGQGTSVTVSS VL: SIVMTQTPKFLLVSAGDRVTITCKASQSVSNDVAWYQQKPGQSPKLLIYYASNRYTGVPDRFSGSGYGTDFTFTISTVQAEDLAVYFCQQDYTSPWTFGGGTKLEIK
3. MIZ926 (antibody, human IgG1, V domains shown) VH: EVQLVESGGGSVKPGGSLKLSCAASGLTFSHYYMYWVRQTPEKRLEWVAIISDGGDYTHYSDSVKGRFTISRDNAKNNLYLQMSSLQSEDTAMYYCAGDYGYGYEGWFAYWGQGTLVTVST VL: DIVMTQSQKFMSTSVGDRVSVTCKASQNVDTYVAWYQQKPGQSPKALIYSTSYRYSGVPDRFTGSGSGTDFTLTISNVQSEDLAEYFCQQYNSYPWTFGGGTKLEIK

1. 5.32
2. 65.6
3. 68.5
